// data source = ChEMBL document CHEMBL4229471

Target: Cathepsin B (Homo sapiens)
Assay: Inhibition of human cathepsin B at 20 uM using Cbz-Phe-Arg-AMC as substrate relative to control
# inhibition annotations

smi | target_or_test_system | inhibition
CCOC(=O)/C=C/C(=O)[C@H](CCc1ccccc1)NC(=O)[C@H](CC(C)C)NC(=O)OCc1ccccc1 | Cathepsin B (Homo sapiens) | 100%
CCOC(=O)/C=C/[C@H](O)[C@H](CCc1ccccc1)C(=O)N[C@@H](CC(C)C)C(=O)OCc1ccccc1 | Cathepsin B (Homo sapiens) | 17%
CCOC(=O)/C=C/[C@@H](O)[C@H](CCc1ccccc1)NC(=O)[C@H](CC(C)C)NC(=O)OCc1ccccc1 | Cathepsin B (Homo sapiens) | 10%
CCOC(=O)/C=C/C(=O)[C@H](C)NC(=O)[C@H](Cc1ccccc1)NC(=O)OCc1ccccc1 | Cathepsin B (Homo sapiens) | 100%
CCOC(=O)/C=C/C=C/C(=O)[C@H](CCc1ccccc1)NC(=O)[C@H](Cc1ccccc1)NC(=O)N1CCOCC1 | Cathepsin B (Homo sapiens) | 90%
CCOC(=O)/C=C/C(=O)[C@H](CCc1ccccc1)NC(=O)[C@H](CC(C)C)NC(=O)N1CCOCC1 | Cathepsin B (Homo sapiens) | 100%
CCOC(=O)/C=C/[C@H](O)[C@H](CCc1ccccc1)C(=O)N[C@@H](Cc1ccccc1)C(=O)OCc1ccccc1 | Cathepsin B (Homo sapiens) | 25%
CCOC(=O)/C=C/C(=O)[C@H](C)NC(=O)[C@H](CC(C)C)NC(=O)OCc1ccccc1 | Cathepsin B (Homo sapiens) | 100%
CCOC(=O)/C=C/C(=O)[C@H](CCc1ccccc1)NC(=O)[C@H](Cc1ccccc1)NC(=O)OCc1ccccc1 | Cathepsin B (Homo sapiens) | 100%
CCOC(=O)/C=C/C(=O)[C@H](CC(C)C)NC(=O)[C@H](Cc1ccccc1)NC(=O)OCc1ccccc1 | Cathepsin B (Homo sapiens) | 100%
O=C(/C=C/[C@@H](O)[C@H](CCc1ccccc1)NC(=O)[C@H](Cc1ccccc1)NC(=O)OCc1ccccc1)NCc1ccccc1 | Cathepsin B (Homo sapiens) | 9%
CCOC(=O)/C=C/C(=O)[C@H](CC(C)C)NC(=O)[C@H](CC(C)C)NC(=O)N1CCOCC1 | Cathepsin B (Homo sapiens) | 100%
O=C(O)/C=C/[C@@H](O)[C@H](CCc1ccccc1)NC(=O)[C@H](Cc1ccccc1)NC(=O)OCc1ccccc1 | Cathepsin B (Homo sapiens) | 15%
CCOC(=O)/C=C/[C@@H](O)[C@H](CCc1ccccc1)NC(=O)[C@H](Cc1ccccc1)NC(=O)OCc1ccccc1 | Cathepsin B (Homo sapiens) | 36%

* * *

Molecular target: Falcipain 2 (Plasmodium falciparum)
Experiment: Inhibition of Plasmodium falciparum falcipain-2 assessed as second-order rate constant using Cbz-Phe-Arg-AMC as substrate measured for 15 mins by spectrofluorimetric method

smi | K / M⁻¹ s⁻¹
O=C(O)/C=C/[C@@H](O)[C@H](CCc1ccccc1)NC(=O)[C@H](Cc1ccccc1)NC(=O)OCc1ccccc1 | 29
CCOC(=O)/C=C/[C@@H](O)[C@H](C)NC(=O)[C@H](Cc1ccccc1)NC(=O)OCc1ccccc1 | 2700
CCOC(=O)/C=C/[C@@H](O)[C@H](CCc1ccccc1)NC(=O)[C@H](Cc1ccccc1)NC(=O)OCc1ccccc1 | 557
CCOC(=O)/C=C/C(=O)[C@H](C)NC(=O)[C@H](Cc1ccccc1)NC(=O)OCc1ccccc1 | 28300
CCOC(=O)/C=C/C(=O)[C@H](C)NC(=O)[C@H](CC(C)C)NC(=O)OCc1ccccc1 | 12000
CCOC(=O)/C=C/C(=O)[C@H](CCc1ccccc1)NC(=O)[C@H](Cc1ccccc1)NC(=O)OCc1ccccc1 | 17100
CCOC(=O)/C=C/C(=O)[C@H](CCc1ccccc1)NC(=O)[C@H](CC(C)C)NC(=O)OCc1ccccc1 | 6000
